system: Inhibin beta A chain (activin A); assay: small molecules binding activin A – biochemical, small-molecule microarray, 635 nm fluorescence scan, primary screen (AID 1107); conditions: INHBA, higher = more signal;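 note: mouse activin A protein probed at 4.33 µg/mL on printed slides; score merges bound-protein fluorescence near 667 nm with spot signal-to-noise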
Field: composite z-score. Provide a value for each of the compounds that follow.
The reply should be a number, written without any unit.

Tested on Inhibin beta A chain (activin A), the item "O[C@@H](Cc1ccccc1)[C@@H](/C=C/C1CC1)NCc1cccc(Cl)c1" showed composite z-score equal to 0.157

Tested on Inhibin beta A chain (activin A), the item CC1CC/C=C\[C@H]2OC34C=CCN(Cc5ccccc5)C(=O)[C@H]3N(C(C)CO)C(=O)[C@@H]4C2C(=O)O1 (some centres not stated) showed composite z-score equal to 0.951

Tested on Inhibin beta A chain (activin A), the item CC(C)=CCCC(C)=CC(O)C1C=CC2C(=O)N(c3ccccc3)C(=O)C2N1Nc1ccc(C(C)C)cc1 (configuration not stated) showed composite z-score equal to 0.583

Tested on Inhibin beta A chain (activin A), the item "COc1ccc([Si](C)(C)[C@H]2[C@H](CCn3cc([C@H](O)c4ccccc4)nn3)O[C@@]3(C(=O)N(C)c4ccccc43)[C@@H]2C)cc1" showed composite z-score equal to 0.209

Tested on Inhibin beta A chain (activin A), the item "COCCCNC(=O)[C@@H]1c2ccccc2C(=O)N(Cc2ccccc2)[C@H]1c1ccc(CO)cc1" showed composite z-score equal to 0.353

Tested on Inhibin beta A chain (activin A), the item OCC1C=C(/C=C/c2ccccc2)CN1Cc1ccccc1Br (configuration not stated) showed composite z-score equal to 0.692

Tested on Inhibin beta A chain (activin A), the item "C=CCNC(=O)[C@@H]1[C@H]2C(=O)O[C@H](c3ccccc3)[C@H](c3ccccc3)N2[C@H](c2ccc(OCCO)cc2)[C@@]12C(=O)N(C(=O)OCCOC)c1ccc(C#CCNC(N)=O)cc12" showed composite z-score equal to 1.2

Tested on Inhibin beta A chain (activin A), the item "C=C(/C(=C/C[C@H](OC(C)=O)c1ccc(OCCO)cc1)c1cc(C(=O)OC)ccc1OC)C(C)C" showed composite z-score equal to 0.326

Tested on Inhibin beta A chain (activin A), the item "CN(C)CCCCNC(=O)[C@@H]1C[C@@H]2C(=O)N[C@@H](CCCCN)C(=O)N2[C@@H]1c1ccc(O)cc1" showed composite z-score equal to 0.684

Tested on Inhibin beta A chain (activin A), the item "COCCCNC(=O)[C@@]1(Sc2ccc(C)cc2)CC(=O)N(Cc2ccccc2Cl)[C@@H]1c1ccc(CO)cc1" showed composite z-score equal to 0.595

Tested on Inhibin beta A chain (activin A), the item C=CCN(Cc1ccccc1)C(=O)C(c1cccs1)N(C(=O)/C=C\C(=O)O)c1ccc(CCOCCO)cc1 (configuration not stated) showed composite z-score equal to -0.753

Tested on Inhibin beta A chain (activin A), the item "CN(C)CCCCCCNC(=O)[C@@H]1C[C@@H]2C(=O)N3CCC[C@H]3C(=O)N2[C@@H]1c1ccc(O)cc1" showed composite z-score equal to 0.254

Tested on Inhibin beta A chain (activin A), the item "C=C[C@H](C)[C@@H](OC(=O)Nc1ccc(SC)cc1)c1ccc(O)c2ccccc12" showed composite z-score equal to 0.482

Tested on Inhibin beta A chain (activin A), the item COc1cc(OC)c(C(O)C2C=CC3C(=O)NC(=O)C3N2Nc2ccccn2)cc1Br (configuration not stated) showed composite z-score equal to 0.811

Tested on Inhibin beta A chain (activin A), the item "C=C(CCCC)C(=O)CC[C@H](OC(=O)c1cccnc1)c1ccc(OCCO)cc1" showed composite z-score equal to 0.877

Tested on Inhibin beta A chain (activin A), the item "NCCCCCNC(=O)[C@H]1C[C@H]2C(=O)N3CCC[C@H]3C(=O)N2[C@H]1c1ccc(O)cc1" showed composite z-score equal to 1.12

Tested on Inhibin beta A chain (activin A), the item "[N-]=[N+]=Nc1ccccc1[C@H]1OC(c2ccc(OCCCO)cc2)=N[C@@]1(Cc1ccccc1)C(=O)N1CCOCC1" showed composite z-score equal to 1.11
